Consider the following substances and their measured pKd readings.
- targetDesc: Human fibrillin-2 recombinant C-terminal half (rFBN2-C) (human) (UniProt P35556)
- experimentalDetails: SPR; FBN2-Ct amine-coupled to a CM5 chip (1700 RU), ADAMTS6 constructs as analytes; Biacore 3000, 25 °C, 10 mM Hepes pH 7.4, 0.15 M NaCl, 2 mM CaCl2, 0.005% or 0.05% P20, 30 μl/min; steady state affinity method
On this scale, pKd is minus log10 of a concentration expressed in M (mol/L).

Recombinant human ADAMTS6-S4TSR (residues 717-1117) (from UniProt Q9UKP5 717-1117) (domain or fragment) = 6.94
Recombinant human ADAMTS6-4TSR (residues 840-1117) (from UniProt Q9UKP5 840-1117) (domain or fragment) = 6.91

Now, please, on to the next substance.
Recall the reported pKd of Recombinant human ADAMTS6-Ct (residues 558-1117) (from UniProt Q9UKP5 558-1117) (domain or fragment) when tested on Human fibrillin-2 recombinant C-terminal half (rFBN2-C) (human) (UniProt P35556). 6.36
